Data origin, for the record: paper PMC11078990

Kindly state activity at 25 µM for each of the entries shown.
biological target: APE1 (Homo sapiens, UniProt P27695); construct: purchased New England Biolabs (NEB) M0282S; assay: APE1 fluorescent oligonucleotide activity assay (abasic site substrate); assay type: biochemical; details: read-out: APE1 activity (%)
Sequence (P27695 whole entry): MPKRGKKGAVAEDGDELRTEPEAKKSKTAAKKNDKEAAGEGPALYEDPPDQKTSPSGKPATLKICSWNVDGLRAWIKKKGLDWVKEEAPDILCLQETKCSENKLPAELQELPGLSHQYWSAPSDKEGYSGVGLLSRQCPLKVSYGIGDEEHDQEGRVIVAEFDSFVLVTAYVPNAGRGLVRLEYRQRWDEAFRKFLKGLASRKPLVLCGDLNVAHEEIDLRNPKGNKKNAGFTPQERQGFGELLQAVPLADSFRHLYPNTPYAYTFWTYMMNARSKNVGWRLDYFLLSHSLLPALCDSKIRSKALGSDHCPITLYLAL
Answers are plain numbers, in %.

Below are worked cases with known answers.
INSERT INTO assay_data (smiles_input, unit_of_measurement, numeric_result) VALUES
  ('C/C(C[C@H](c1ccccc1)c1c(O)c2ccccc2oc1=O)=N\Nc1ccc([N+](=O)[O-])cc1[N+](=O)[O-]', '%', 104),
  ('O=C1c2ccc(Oc3ccc4c(c3)C(=O)N(Nc3ccc([N+](=O)[O-])cc3[N+](=O)[O-])C4=O)cc2C(=O)N1Nc1ccc([N+](=O)[O-])cc1[N+](=O)[O-]', '%', 84.4),
  ('O=C(NCCCCCCNC(=O)Nc1cccc([N+](=O)[O-])c1)Nc1cccc([N+](=O)[O-])c1', '%', 108),
  ('Cc1cc(=O)oc2c3c(ccc12)O/C(=N/Nc1ccc([N+](=O)[O-])cc1[N+](=O)[O-])C3=O', '%', 109),
  ('C/C(=N\Nc1ccc([N+](=O)[O-])cc1[N+](=O)[O-])c1ccc(-n2nncc2C(C)(C)C)cc1', '%', 119);

Exam item: Name the reported activity at 25 µM value associated with the compound O=C(CCCCCCCCCCC(=O)Nc1cccc([N+](=O)[O-])c1)Nc1cccc([N+](=O)[O-])c1
Marked response: 79.4

* * *

Exercise: for every item that follows, state its recorded APE1 percent activity, Replicate 1.
target: APE1 (Homo sapiens, UniProt P27695); construct: purchased New England Biolabs (NEB) M0282S; assay: APE1 fluorescent oligonucleotide activity assay (abasic site substrate); format: biochemical
Give bare numbers, in %.

INSERT INTO assay_data (smiles_input, numeric_result) VALUES
  ('C/C(=N\Nc1ccc([N+](=O)[O-])cc1[N+](=O)[O-])c1ccc(-n2nncc2C(C)(C)C)cc1', 123.061),
  ('O=C(O)[C@H](CCCCNc1ccc([N+](=O)[O-])cc1[N+](=O)[O-])Nc1ccc([N+](=O)[O-])cc1[N+](=O)[O-]', 98.5607),
  ('Cc1cc(=O)oc2c3c(ccc12)O/C(=N/Nc1ccc([N+](=O)[O-])cc1[N+](=O)[O-])C3=O', 111.351),
  ('O=C1c2ccc(Oc3ccc4c(c3)C(=O)N(Nc3ccc([N+](=O)[O-])cc3[N+](=O)[O-])C4=O)cc2C(=O)N1Nc1ccc([N+](=O)[O-])cc1[N+](=O)[O-]', 97.407),
  ('O=C(NCCCCCCNC(=O)Nc1cccc([N+](=O)[O-])c1)Nc1cccc([N+](=O)[O-])c1', 105.807),
  ('C/C(C[C@H](c1ccccc1)c1c(O)c2ccccc2oc1=O)=N\Nc1ccc([N+](=O)[O-])cc1[N+](=O)[O-]', 92.838);

Could you now consider this next molecule?
Exam item: API: value(readout= APE1 percent activity, Replicate 1, system= APE1 (Homo sapiens, UniProt P27695), query= O=C(CCCCCCCCCCC(=O)Nc1cccc([N+](=O)[O-])c1)Nc1cccc([N+](=O)[O-])c1 )
Marked response: 77.2032

* * *

system: L1 retrotransposition; experiment: HeLa dual-luciferase L1 retrotransposition assay; assay type: cell-based, human
Returns one of Criterion met or Criterion not met; Criterion met when Luciferase (retrotransposition), average is >= 2.

Known results for compounds:
INSERT INTO measurements (smiles_input, system_under_test, classification) VALUES
  ('Cc1cc(=O)oc2c3c(ccc12)O/C(=N/Nc1ccc([N+](=O)[O-])cc1[N+](=O)[O-])C3=O', 'L1 retrotransposition', 'Criterion met'),
  ('O=C(CCCCCCCCCCC(=O)Nc1cccc([N+](=O)[O-])c1)Nc1cccc([N+](=O)[O-])c1', 'L1 retrotransposition', 'Criterion met'),
  ('O=C1c2ccc(Oc3ccc4c(c3)C(=O)N(Nc3ccc([N+](=O)[O-])cc3[N+](=O)[O-])C4=O)cc2C(=O)N1Nc1ccc([N+](=O)[O-])cc1[N+](=O)[O-]', 'L1 retrotransposition', 'Criterion met'),
  ('C/C(C[C@H](c1ccccc1)c1c(O)c2ccccc2oc1=O)=N\Nc1ccc([N+](=O)[O-])cc1[N+](=O)[O-]', 'L1 retrotransposition', 'Criterion not met'),
  ('O=C(NCCCCCCNC(=O)Nc1cccc([N+](=O)[O-])c1)Nc1cccc([N+](=O)[O-])c1', 'L1 retrotransposition', 'Criterion not met');

Exam item: Given C/C(=N\Nc1ccc([N+](=O)[O-])cc1[N+](=O)[O-])c1ccc(-n2nncc2C(C)(C)C)cc1 , state whether its Luciferase (retrotransposition), average is at least 2.
Marked response: Criterion met

* * *

biological target: L1 EN (LINE-1 retrotransposon endonuclease domain) (Homo sapiens, UniProt O00370, N5T); experiment: Fluorescent oligonucleotide EN nicking activity assay; type: biochemical; details: [Inhibitor] 25 μM; technical replicates 1-3, Fig. 2b source data; read-out: EN activity, percent of no inhibitor control
Sequence (O00370 1-239 N5T): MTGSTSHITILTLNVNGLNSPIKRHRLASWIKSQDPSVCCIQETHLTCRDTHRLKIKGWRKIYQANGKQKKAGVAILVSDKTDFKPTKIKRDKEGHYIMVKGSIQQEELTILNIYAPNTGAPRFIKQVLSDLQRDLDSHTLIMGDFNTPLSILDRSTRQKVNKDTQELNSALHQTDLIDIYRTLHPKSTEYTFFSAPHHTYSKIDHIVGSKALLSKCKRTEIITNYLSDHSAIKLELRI
Threshold 80%. remaining activity at 25 µM below it: TRUE. remaining activity at 25 µM at it or above: FALSE.

INSERT INTO measurements (compound, classification) VALUES
  ('Nn1cnn2c(SCC(=O)Nc3nnc(SCC(=O)Nc4ccc(S(N)(=O)=O)cc4)s3)nnc12 [AD29]', 'TRUE'),
  ('C[C@H]1C[C@H](C)CN(CCCNc2ccc(C(=O)Nc3ccc(C(F)(F)F)cc3)cc2[N+](=O)[O-])C1 [AD9]', 'FALSE'),
  ('O=C(Nc1ccc(S(=O)(=O)NCc2ccco2)cc1)c1cc(NS(=O)(=O)c2cccs2)cc(NS(=O)(=O)c2cccs2)c1 [AD18]', 'FALSE'),
  ('COc1ccc([N+](=O)[O-])cc1NC(=O)c1ccc2c(c1)N(Cc1cc(C)ccc1C)C(=O)c1ccccc1S2(=O)=O [AD34]', 'TRUE');

Exam item: Hello, is remaining activity at 25 µM of the following compound strictly smaller than 80%? Nn1cnn2c(SCC(=O)Cc3ccc(-c4nc5cc(NC(=O)CSc6nnc7n(N)cnn67)ccc5o4)cc3)nnc12 [AD16]
Marked response: TRUE

* * *

Could you please report measured remaining activity at 5 µM for the items listed next?
target: L1 EN (LINE-1 retrotransposon endonuclease domain) (Homo sapiens, UniProt O00370, N5T); test: Fluorescent oligonucleotide EN nicking activity assay; format: biochemical; settings: read-out: EN activity, percent of no inhibitor control
Give bare numbers, in %.

INSERT INTO results (smiles_input, system_under_test, outcome_measure, unit_of_measurement, numeric_result) VALUES
  ('O=C(CCCCCCCCCCC(=O)Nc1cccc([N+](=O)[O-])c1)Nc1cccc([N+](=O)[O-])c1', 'L1 EN (LINE-1 retrotransposon endonuclease domain) (Homo sapiens, UniProt O00370, N5T)', 'remaining activity at 5 µM', '%', 54.9),
  ('C/C(C[C@H](c1ccccc1)c1c(O)c2ccccc2oc1=O)=N\Nc1ccc([N+](=O)[O-])cc1[N+](=O)[O-]', 'L1 EN (LINE-1 retrotransposon endonuclease domain) (Homo sapiens, UniProt O00370, N5T)', 'remaining activity at 5 µM', '%', 89.6),
  ('Cc1cc(=O)oc2c3c(ccc12)O/C(=N/Nc1ccc([N+](=O)[O-])cc1[N+](=O)[O-])C3=O', 'L1 EN (LINE-1 retrotransposon endonuclease domain) (Homo sapiens, UniProt O00370, N5T)', 'remaining activity at 5 µM', '%', 74.7);

Exam item: Form field: reported remaining activity at 5 µM of O=C(NCCCCCCNC(=O)Nc1cccc([N+](=O)[O-])c1)Nc1cccc([N+](=O)[O-])c1
Marked response: 103

* * *

molecular target: L1 EN (LINE-1 retrotransposon endonuclease domain) (Homo sapiens, UniProt O00370, N5T); assay: Fluorescent oligonucleotide EN nicking activity assay; format: biochemical; details: [Inhibitor] 100 μM; technical replicates 1-3, Fig. 2b source data; read-out: EN activity, percent of no inhibitor control
outcome_measure: remaining activity at 100 µM (%)
Answers are plain numbers, in %.

Examples with their reported remaining activity at 100 µM follow.
INSERT INTO measurements (compound, numeric_result) VALUES
  ('O=C(Cn1nc(-c2ccc(Br)cc2)ccc1=O)NC[C@H]1CC[C@H](C(=O)O)CC1', 106),
  ('Nn1cnn2c(SCC(=O)Nc3nnc(SCC(=O)Nc4ccc(S(N)(=O)=O)cc4)s3)nnc12', 5.53),
  ('Nn1cnn2c(SCC(=O)Cc3ccc(-c4nc5cc(NC(=O)CSc6nnc7n(N)cnn67)ccc5o4)cc3)nnc12', 2.31),
  ('O=C(Nc1ccc(S(=O)(=O)NCc2ccco2)cc1)c1cc(NS(=O)(=O)c2cccs2)cc(NS(=O)(=O)c2cccs2)c1', 46.3);

For each of the compounds below, note its remaining activity at 100 µM.
1. C[C@H]1C[C@H](C)CN(CCCNc2ccc(C(=O)Nc3ccc(C(F)(F)F)cc3)cc2[N+](=O)[O-])C1
2. Cc1ccc(NC(=O)CSc2nc(-c3ccccc3F)nc3c2Cc2c(CO)cnc(C)c2O3)cc1
3. COc1ccc(OC)c(NS(=O)(=O)c2ccc(NS(=O)(=O)c3cccc([N+](=O)[O-])c3)cc2)c1
4. Cc1cc(O[C@H](C)C(=O)NC[C@H]2CC[C@H](C(=O)O)CC2)c2c3c(c(=O)oc2c1)CCC3
5. O=C(O)C1CCC(Cn2c(=S)[nH]c3ccc(F)cc3c2=O)CC1 (stereo not drawn)

Marked response:
1: 85.7; 2: 79.1; 3: 96.7; 4: 105; 5: 89.5
